Test system: pENSA
method-description: pENSA level by immunofluorescence (described method: in vitro kinase analysis with GST-tag-MASTL and His-tag-ENSA)
Type: cell-based
condition-summary: compound 1 µM
Quick rule for you: pENSA (%) Immunofluor ecense (1 µM) at 10% or higher means Met, lower means Not met.

N#CCc1ccc(Nc2nc(Nc3cc(C4CC4)[nH]n3)c3ccccc3n2)cc1	Not met
O=S(=O)(NCCO)c1ccc(Nc2nc(Nc3cc(C4CC4)[nH]n3)c3ccccc3n2)cc1	Met
CC(C)(C)OC(=O)Cc1ccc(Nc2nc(Nc3cc(C4CC4)[nH]n3)c3ccccc3n2)cc1	Met
c1ccc2c(Nc3cc(C4CC4)[nH]n3)nc(N3CC4CCC(C3)N4)nc2c1	Met
CN(C)S(=O)(=O)c1ccc(Nc2nc(Nc3ccccc3)nc3ccccc23)cc1 [compound 25d]	Met
O=S(=O)(c1cccs1)N1CC2CCC1CN2c1nc(Nc2cc(C3CC3)[nH]n2)c2ccccc2n1 (centres unmarked) [compound 24d]	Not met
CC(C)S(=O)(=O)N1CC2CCC1CN2c1nc(Nc2cc(C3CC3)[nH]n2)c2ccccc2n1 (centres unmarked) [compound 24a]	Met
O=C(c1ccccc1)N1CC=C(c2nc(Nc3cc(C4CC4)[nH]n3)c3ccccc3n2)CC1	Met

----------
Test system: MCF7 breast cancer cell lines
method-description: Cell viability analysis, WST-8 assay, MCF7
condition-summary: Homo sapiens, MCF7, 72 h, read-out: Cell viability (%) WST-8, MCF7 (1 µM), compound 1 µM, 72 hours
assay-endpoint: viability at 1 µM

c1ccc2c(Nc3cc(C4CC4)[nH]n3)nc(Nc3cnc4cccnn34)nc2c1	116%
O=C(c1ccccc1)N1CC=C(c2nc(Nc3cc(C4CC4)[nH]n3)c3ccccc3n2)CC1	63.8%
C1=C(Cc2ccccc2)CCN(c2nc(Nc3cc(C4CC4)[nH]n3)c3ccccc3n2)C1	89.7%
N#Cc1ccc(CNc2nc(Nc3cc(C4CC4)[nH]n3)c3ccccc3n2)cc1	73.6%
Fc1cc(Br)ccc1Nc1nc(Nc2cc(C3CC3)[nH]n2)c2ccccc2n1	50.8%
CC(C)(C)OC(=O)NCCCCCNC(=O)c1ccc(Nc2nc(Nc3cc(C4CC4)[nH]n3)c3ccccc3n2)cc1	86.3%
NC(=O)c1ccc(Nc2nc(Nc3cc(C4CC4)[nH]n3)c3ccccc3n2)cc1	2.7%
O=C1CSC(Nc2nc(Nc3ccccc3)nc3ccccc23)=N1 [compound 26b]	95.8%

----------
method-description: in vitro
condition-summary: human, mcf10a cells
assay-endpoint: viability at 1 µM (%)

C1=C(c2ccccc2)CCN(c2nc(Nc3cc(C4CC4)[nH]n3)c3ccccc3n2)C1	91.4
N#Cc1ccc(CNc2nc(Nc3cc(C4CC4)[nH]n3)c3ccccc3n2)cc1	32
Cc1cc(Nc2nc(N3CC4CC3CN4C(=O)C(C)C)nc3ccccc23)n[nH]1 (centres unmarked) [compound 27c]	46.7
c1ccc2c(Nc3cc(C4CC4)[nH]n3)nc(Nc3cc(C4CC4)[nH]n3)nc2c1	3.2
O=C(c1ccccc1)N1CC2CC1CN2c1nc(Nc2cn[nH]c2)c2ccccc2n1 (centres unmarked) [compound 28d]	49.7
CNC(=O)c1ccc(Nc2nc(Nc3cc(C4CC4)[nH]n3)c3ccccc3n2)cc1	70.5
CCNC(=O)c1ccc(Nc2nc(Nc3cc(C4CC4)[nH]n3)c3ccccc3n2)cc1	66.5
CC(C)(C)OC(=O)NCCNC(=O)c1ccc(Nc2nc(Nc3cc(C4CC4)[nH]n3)c3ccccc3n2)cc1	63.4

----------
Tested on: MCF7 breast cancer cell lines
method-description: Cell viability analysis, WST-8 assay, MCF7
condition-summary: Homo sapiens, MCF7, 72 h, read-out: Cell viability (%) WST-8, MCF7, footnote a: concentration 1.25 µM, 72 hours
assay-endpoint: viability at 1.25 µM

c1ccc(Nc2nc(Nc3cc(C4CC4)[nH]n3)c3ccccc3n2)cc1	8.1%
O=S(=O)(NCCO)c1ccc(Nc2nc(Nc3cc(C4CC4)[nH]n3)c3ccccc3n2)cc1	45.9%
Nc1nc(Nc2cc(C3CC3)[nH]n2)c2ccccc2n1	43%
CCNC(=O)N1CCN(c2nc(Nc3cc(C4CC4)[nH]n3)c3ccccc3n2)CC1 [compound 12c]	107%
c1ccc(CCNc2nc(Nc3cc(C4CC4)[nH]n3)c3ccccc3n2)cc1	72.8%
COc1ccc(CNc2nc(Nc3cc(C4CC4)[nH]n3)c3ccccc3n2)cc1	83.8%
c1ccc2c(Nc3cc(C4CC4)[nH]n3)nc(N3CCNCC3)nc2c1	104%
CNS(=O)(=O)c1ccc(Nc2nc(Nc3cc(C4CC4)[nH]n3)c3ccccc3n2)cc1	41.8%
OCCN1CCN(c2nc(Nc3cc(C4CC4)[nH]n3)c3ccccc3n2)CC1 [compound 12b]	69.4%

----------
Test system: MCF7 breast cancer cell lines
method-description: Cell viability analysis, WST-8 assay, MCF7
condition-summary: Homo sapiens, MCF7, 72 h, read-out: Cell viability (%) WST-8, MCF7 (1 µM), compound 1 µM, 72 hours
Recorded viability at 1 µM for the following compounds
assay-endpoint: viability at 1 µM (%)

O=C(Nc1ccccc1)N1CC2CC1CN2c1nc(Nc2cc(C3CC3)[nH]n2)c2ccccc2n1 (stereo not shown) [compound 15c]	93
C1=C(c2ccccc2)CCN(c2nc(Nc3cc(C4CC4)[nH]n3)c3ccccc3n2)C1	90.9
CC(C)(C)OC(=O)N1CCC2(CC1)CCN(c1nc(Nc3cc(C4CC4)[nH]n3)c3ccccc3n1)CC2	116
CN(C)S(=O)(=O)c1ccc(Nc2nc(Nc3ccccc3)nc3ccccc23)cc1 [compound 25d]	90.8

----------
Test system: MCF7 breast cancer cell lines
method-description: Cell viability analysis, WST-8 assay, MCF7
condition-summary: compound 1 µM, 72 hours
assay-endpoint: Cell viability (%) WST-8, MCF7 (1 µM)

COc1ccc(CNc2nc(Nc3cc(C4CC4)[nH]n3)c3ccccc3n2)cc1 [4ad]	96.4
O=S(=O)(C1CCCCC1)N1CC2CCC1CN2c1nc(Nc2cc(C3CC3)[nH]n2)c2ccccc2n1 (centres unmarked) [compound 24b]	90.7
N#Cc1ccccc1S(=O)(=O)N1CC2CCC1CN2c1nc(Nc2cc(C3CC3)[nH]n2)c2ccccc2n1 (centres unmarked) [compound 24e]	2.2
CC(C)S(=O)(=O)N1CC2CCC1CN2c1nc(Nc2cc(C3CC3)[nH]n2)c2ccccc2n1 (centres unmarked) [compound 24a]	4.8
O=S(=O)(c1cccs1)N1CC2CCC1CN2c1nc(Nc2cc(C3CC3)[nH]n2)c2ccccc2n1 (centres unmarked) [compound 24d]	6.4

----------
System: MCF7 breast cancer cell lines
method-description: Cell viability analysis, WST-8 assay, MCF7
condition-summary: Homo sapiens, MCF7, 72 h, read-out: Cell viability (%) WST-8, MCF7 (1 µM), compound 1 µM, 72 hours
assay-endpoint: viability at 1 µM (%)

O=C1Cc2cc(Nc3nc(Nc4cc(C5CC5)[nH]n4)c4ccccc4n3)ccc2N1	55.4
CN(C)S(=O)(=O)c1ccc(Nc2nc(Nc3ccc(C#N)cc3)nc3ccccc23)cc1 [compound 25b]	86.4
O=C(Nc1ccccc1)N1CC2CC1CN2c1nc(Nc2cn[nH]c2)c2ccccc2n1 (stereo not shown) [compound 28b]	91.2
c1ccc(CN2CC3CC2CN3c2nc(Nc3cc(C4CC4)[nH]n3)c3ccccc3n2)cc1 (stereo not shown) [compound 15g]	54.4

----------
System: pENSA
method-description: pENSA level by immunofluorescence (described method: in vitro kinase analysis with GST-tag-MASTL and His-tag-ENSA)
Type: cell-based
condition-summary: compound 1 µM
Quick rule for you: pENSA (%) Immunofluor ecense (1 µM) at 90% or higher means t, lower means f.

CS(=O)(=O)Cc1ccc(Nc2nc(Nc3cc(C4CC4)[nH]n3)c3ccccc3n2)cc1	f
CC(C)(C)OC(=O)Nc1cccc(Nc2nc(Nc3ccc(CC#N)cc3)nc3ccccc23)c1	f
C1=C(Cc2ccccc2)CCN(c2nc(Nc3cc(C4CC4)[nH]n3)c3ccccc3n2)C1	t
C1=C(c2ccccc2)CCN(c2nc(Nc3cc(C4CC4)[nH]n3)c3ccccc3n2)C1	t
c1ccc2c(Nc3cc(C4CC4)[nH]n3)nc(N3CCC4(CC3)OCCO4)nc2c1	f
N#CCc1ccc(Nc2nc(Nc3n[nH]c4ccccc34)c3ccccc3n2)cc1	f

----------
Recorded activity at 1 µM for the following compounds
assay-target: Recombinant GST-TAG-MASTL (Homo sapiens)
Construct: GST; purchased Thermo Fisher Scientific
Sequence (Q96GX5 1-879): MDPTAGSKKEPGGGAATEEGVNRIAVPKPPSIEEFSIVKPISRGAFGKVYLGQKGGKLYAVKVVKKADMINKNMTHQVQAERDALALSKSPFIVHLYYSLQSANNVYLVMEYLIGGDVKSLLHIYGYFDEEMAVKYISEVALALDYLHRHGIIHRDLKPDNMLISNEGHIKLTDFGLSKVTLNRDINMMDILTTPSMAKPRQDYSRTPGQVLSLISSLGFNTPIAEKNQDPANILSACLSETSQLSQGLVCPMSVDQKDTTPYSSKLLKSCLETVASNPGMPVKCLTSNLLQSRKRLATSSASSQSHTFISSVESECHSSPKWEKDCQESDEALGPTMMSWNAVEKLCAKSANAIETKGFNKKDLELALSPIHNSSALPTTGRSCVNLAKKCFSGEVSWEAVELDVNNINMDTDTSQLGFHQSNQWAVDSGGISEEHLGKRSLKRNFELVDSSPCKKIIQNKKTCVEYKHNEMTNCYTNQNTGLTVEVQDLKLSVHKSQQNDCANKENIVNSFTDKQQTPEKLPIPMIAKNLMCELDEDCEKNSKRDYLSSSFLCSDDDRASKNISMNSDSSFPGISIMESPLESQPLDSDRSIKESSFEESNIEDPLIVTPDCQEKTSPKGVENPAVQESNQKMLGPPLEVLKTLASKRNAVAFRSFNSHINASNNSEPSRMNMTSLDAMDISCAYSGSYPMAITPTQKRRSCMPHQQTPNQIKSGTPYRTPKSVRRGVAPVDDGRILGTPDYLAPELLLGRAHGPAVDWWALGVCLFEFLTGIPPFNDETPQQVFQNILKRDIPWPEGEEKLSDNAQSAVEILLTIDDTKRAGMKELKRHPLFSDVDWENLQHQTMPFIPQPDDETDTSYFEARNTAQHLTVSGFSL
method-description: HTRF-based kinase assay (HTRF KinEASE assay kit)
Format: biochemical
condition-summary: compound 1 µM; read-out: MASTL activity (%) HTRF (1 µM)
assay-endpoint: activity at 1 µM (%)

c1ccc2c(Nc3cc(C4CC4)[nH]n3)nc(Nc3ccc4[nH]ccc4c3)nc2c1 [compound 4db]	28.9
O=C1CSC(Nc2nc(Nc3ccccc3)nc3ccccc23)=N1 [compound 26b]	112
NC(=O)c1ccc(Nc2nc(Nc3cc(C4CC4)[nH]n3)c3ccccc3n2)cc1 [compound 4t]	14.9
c1ccc(CN2CC3CC2CN3c2nc(Nc3cn[nH]c3)c3ccccc3n2)cc1 (centres unmarked) [compound 28f]	118
CN(C)S(=O)(=O)c1ccc(Nc2nc(Nc3ccc(CC#N)cc3)nc3ccccc23)cc1 [compound 25a]	114
O=C(c1ccccc1)N1CC=C(c2nc(Nc3cc(C4CC4)[nH]n3)c3ccccc3n2)CC1 [compound 9a]	45.5
CC(C)CN1CC2CC1CN2c1nc(Nc2cc(C3CC3)[nH]n2)c2ccccc2n1 (centres unmarked) [compound 15f]	65.7
C1=C(c2ccccc2)CCN(c2nc(Nc3cc(C4CC4)[nH]n3)c3ccccc3n2)C1 [compound 6e]	43.3
